Lipogenesis in rat adipocytes [Potency (%)] Mean Value reference
Target: insulin receptor of isolated rat adipocytes (rat, UniProt P15127 27-1383)
Sequence (P15127 27-1383): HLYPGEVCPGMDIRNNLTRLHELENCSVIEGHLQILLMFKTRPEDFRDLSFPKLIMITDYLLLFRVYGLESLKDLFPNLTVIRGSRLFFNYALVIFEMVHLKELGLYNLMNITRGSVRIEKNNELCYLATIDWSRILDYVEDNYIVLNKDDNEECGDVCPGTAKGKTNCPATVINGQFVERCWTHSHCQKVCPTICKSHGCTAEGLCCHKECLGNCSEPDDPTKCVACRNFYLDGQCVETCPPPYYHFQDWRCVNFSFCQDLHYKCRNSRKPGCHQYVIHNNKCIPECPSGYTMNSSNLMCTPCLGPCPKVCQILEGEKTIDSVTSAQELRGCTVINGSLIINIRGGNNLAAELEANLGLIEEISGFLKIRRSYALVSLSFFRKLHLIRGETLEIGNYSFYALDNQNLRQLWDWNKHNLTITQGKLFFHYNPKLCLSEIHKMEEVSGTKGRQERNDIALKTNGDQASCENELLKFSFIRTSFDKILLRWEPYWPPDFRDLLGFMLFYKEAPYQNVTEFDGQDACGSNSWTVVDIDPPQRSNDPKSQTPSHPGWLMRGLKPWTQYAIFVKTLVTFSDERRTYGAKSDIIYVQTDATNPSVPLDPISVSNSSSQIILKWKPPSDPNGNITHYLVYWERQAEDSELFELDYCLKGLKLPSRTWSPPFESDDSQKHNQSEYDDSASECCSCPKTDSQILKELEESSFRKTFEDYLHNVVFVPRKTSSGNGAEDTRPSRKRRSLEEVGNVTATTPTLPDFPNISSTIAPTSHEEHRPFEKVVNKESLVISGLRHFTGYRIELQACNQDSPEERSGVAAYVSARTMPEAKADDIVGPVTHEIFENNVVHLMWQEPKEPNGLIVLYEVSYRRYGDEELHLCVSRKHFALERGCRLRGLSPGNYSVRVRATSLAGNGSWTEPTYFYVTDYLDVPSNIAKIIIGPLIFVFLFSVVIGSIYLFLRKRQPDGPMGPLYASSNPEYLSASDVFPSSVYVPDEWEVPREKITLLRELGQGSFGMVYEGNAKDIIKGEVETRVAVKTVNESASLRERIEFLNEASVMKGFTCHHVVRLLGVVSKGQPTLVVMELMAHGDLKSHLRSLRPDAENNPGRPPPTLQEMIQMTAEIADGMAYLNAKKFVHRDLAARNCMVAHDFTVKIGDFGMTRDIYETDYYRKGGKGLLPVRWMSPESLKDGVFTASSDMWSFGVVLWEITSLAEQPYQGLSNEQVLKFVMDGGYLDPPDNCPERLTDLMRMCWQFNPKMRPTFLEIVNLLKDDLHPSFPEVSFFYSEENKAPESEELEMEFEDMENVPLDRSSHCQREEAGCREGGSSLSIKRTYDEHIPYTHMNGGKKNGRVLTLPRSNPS
Assay: cell-based or functional assay

binder	measuredValue
(A14E, A21G, A22(GQAP)19, A98K^, A99P, B25H, B29R, desB30 human insulin)/(227A, 234A, 235K, 297E, 315Q, 384Q, des447 hIgG4-Fc(228-447)) … (other, Cys229 (EU numbering) sulphur bound to an acetyl arm of the linker; A98K N(eps) acylated by the trivalent linker 4-[bis[2-[(2-acetyl)amino]ethyl]amino]-4-oxo-butanoyl, also called Ex 5.15) chain 1: GIVEQCCTSICSLEQLENYCGGQAPGQAPGQAPGQAPGQAPGQAPGQAPGQAPGQAPGQAPGQAPGQAPGQAPGQAPGQAPGQAPGQAPGQAPGQAPKP chain 2: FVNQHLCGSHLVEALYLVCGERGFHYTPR chain 3: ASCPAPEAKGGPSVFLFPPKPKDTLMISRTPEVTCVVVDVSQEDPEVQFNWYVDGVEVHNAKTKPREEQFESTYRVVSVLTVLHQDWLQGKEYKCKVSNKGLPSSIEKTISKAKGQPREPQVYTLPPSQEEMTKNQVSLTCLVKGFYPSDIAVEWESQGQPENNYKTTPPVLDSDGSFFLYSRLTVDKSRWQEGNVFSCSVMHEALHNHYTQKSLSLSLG	3.68 % of human insulin

Proceed to the following item.
**Query** // Input: A14E, A21G, A22(GQAPGQAPGQAPGQEP)6-GQAP, A122K^, A123P, B25H, B29R, desB30 human insulin/(227A, 234A, 235K, 297E, 315Q, 384Q, des447 hIgG4-Fc(228-447)) … (other, Cys229 (EU numbering) sulphur bound to an acetyl arm of the linker; A122K N(eps) acylated by the trivalent linker 4-[bis[2-[(2-acetyl)amino]ethyl]amino]-4-oxo-butanoyl, also called Ex 5.20) chain 1: GIVEQCCTSICSLEQLENYCGGQAPGQAPGQAPGQEPGQAPGQAPGQAPGQEPGQAPGQAPGQAPGQEPGQAPGQAPGQAPGQEPGQAPGQAPGQAPGQEPGQAPGQAPGQAPGQEPGQAPKP chain 2: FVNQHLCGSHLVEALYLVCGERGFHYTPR chain 3: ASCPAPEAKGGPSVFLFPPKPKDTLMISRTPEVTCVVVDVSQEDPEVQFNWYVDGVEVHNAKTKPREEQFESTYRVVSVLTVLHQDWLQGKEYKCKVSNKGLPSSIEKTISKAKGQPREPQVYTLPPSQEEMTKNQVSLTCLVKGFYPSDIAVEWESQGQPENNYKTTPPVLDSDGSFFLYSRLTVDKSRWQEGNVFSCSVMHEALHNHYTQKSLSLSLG . Output its Lipogenesis in rat adipocytes [Potency (%)] Mean Value only.
**Result** 5.41 % of human insulin
